Here the recorded Cplasma, free (μM) is given for each entry.
test.summary: Brain exposure assay in mice (brain-to-plasma ratio after oral administration)
Type: in vivo
condition.summary: mouse, 100 mg/kg, 2 hr

Would you please look over these solved cases?
CN(C)C(=O)N1CCC[C@H](c2ccc(NC(=O)OCc3cnco3)cc2)C1 ... 2.48, μM
CN(C)S(=O)(=O)N1CCC(Cc2ccc(NC(=O)OCc3cnco3)cc2)CC1 ... 1.55, μM
CN(C)C(=O)N1CCC(Cc2ccc(NC(=O)OCc3cnco3)cc2F)CC1 ... 1.30, μM
CN(C)S(=O)(=O)N1CC2(CC(Cc3ccc(NC(=O)OCc4cnco4)cc3F)C2)C1 ... 0.44, μM

Asked: Sample CN(C)C(=O)N1CC2(CC(c3ccc(NC(=O)OCc4cnco4)cc3F)C2)C1 — what was its Cplasma, free (μM)?
Given back: 0.58, μM

###

Here the recorded pEC50 is given for each entry.
test.target: UniProt P43490
test.summary: NMN fluorescence biochemical assay (human recombinant NAMPT enzyme assay)
In textbook form, pEC50 equals minus log to base ten of the concentration in mol/L.

Would you please look over these solved cases?
Cc1ccc(C(=O)NCc2ccc(NC(=O)OCc3cnco3)cc2)cn1 [Compound 25] ... 5.11
O=C(Nc1ccc(CC(=O)N2CCCCC2)cc1)OCc1ccc(Cl)cc1 [Compound 111] ... 5.27
O=C(Nc1ccc(CNC(=O)c2cncc(F)c2)cc1)OCc1ccc(Cl)cc1 [Compound 271] ... 5.32

Asked: Sample CC(C)c1ccc(C(=O)NCc2ccc(NC(=O)OCc3ccc(Cl)cc3)cc2)cn1 [Compound 234] — what was its pEC50?
Given back: 5.47

Asked: Sample Cc1ccc(N(C)C(=O)Cc2ccc(NC(=O)OCc3ccc(Cl)cc3)cc2)cn1 [Compound 264] — what was its pEC50?
Given back: 4.71

Asked: Sample O=C(Nc1ccc(CNC(=O)C2COC2)cc1)OCc1ccc(Cl)cc1 [Compound 310] — what was its pEC50?
Given back: 4.48

Asked: Sample O=C(Nc1ccc(CNC(=O)c2c(F)cncc2F)cc1)OCc1ccc(Cl)cc1 [Compound 147] — what was its pEC50?
Given back: 5.28

Asked: Sample CN([C@@H]1CCOC1)S(=O)(=O)c1ccc(NC(=O)OCc2ccc(Cl)cc2)cc1 [Compound 337] — what was its pEC50?
Given back: 4.58

Asked: Sample C[C@H](NC(=O)[C@H]1C[C@@H]2[C@H](C1)C2(F)F)c1ccc(NC(=O)OCc2cnco2)cc1 [Compound 230] — what was its pEC50?
Given back: 4.82

Asked: Sample O=C(Nc1ccc(Cc2ccncc2)cc1)OCc1cncs1 [Compound 201] — what was its pEC50?
Given back: 4.58

Asked: Sample C[C@H](NC(=O)c1ccncc1)c1ccc(NC(=O)OCc2ccc(Cl)cc2)cc1 [Compound 105] — what was its pEC50?
Given back: 5.71

###

test.summary: Brain exposure assay in mice (brain-to-plasma ratio after oral administration)
Type: in vivo
condition.summary: male, C57BL/6JNIFDC, oral, 100 mg/kg; mouse, 6 hr; total brain-plasma concentration ratio
endpoint.label: Kp at 6 h
Just the number, please, no unit attached.

CN(C)C(=O)N1CCC[C@H](c2ccc(NC(=O)OCc3cnco3)cc2)C1 ... 0.16
CN(C)C(=O)N1CC2(CC(c3ccc(NC(=O)OCc4cnco4)cc3F)C2)C1 ... 0.43

Asked: Sample CN(C)S(=O)(=O)N1CCC(Cc2ccc(NC(=O)OCc3cnco3)cc2)CC1 — what was its Kp at 6 h?
Given back: 0.25

Asked: Sample CN(C)C(=O)N1CCC(Cc2ccc(NC(=O)OCc3cnco3)cc2F)CC1 — what was its Kp at 6 h?
Given back: 0.47

Asked: Sample CN(C)S(=O)(=O)N1CC2(CC(Cc3ccc(NC(=O)OCc4cnco4)cc3F)C2)C1 — what was its Kp at 6 h?
Given back: 0.43

###

Here the recorded fraction unbound is given for each entry.
test.summary: Plasma protein binding (PPB), mouse
Assay type: in vitro ADME
condition.summary: mouse, plasma
Just the number, please, no unit attached.

Would you please look over these solved cases?
CN(C)C(=O)N1CCC(Cc2ccc(NC(=O)OCc3cnco3)cc2F)CC1 ... 0.022
CN(C)C(=O)N1CCC[C@H](c2ccc(NC(=O)OCc3cnco3)cc2)C1 ... 0.024

Asked: Sample CN(C)S(=O)(=O)N1CCC(Cc2ccc(NC(=O)OCc3cnco3)cc2)CC1 — what was its fraction unbound?
Given back: 0.037

###

test.target: human NAMPT (Homo sapiens (Human), UniProt P43490)
Sequence (P43490 whole entry): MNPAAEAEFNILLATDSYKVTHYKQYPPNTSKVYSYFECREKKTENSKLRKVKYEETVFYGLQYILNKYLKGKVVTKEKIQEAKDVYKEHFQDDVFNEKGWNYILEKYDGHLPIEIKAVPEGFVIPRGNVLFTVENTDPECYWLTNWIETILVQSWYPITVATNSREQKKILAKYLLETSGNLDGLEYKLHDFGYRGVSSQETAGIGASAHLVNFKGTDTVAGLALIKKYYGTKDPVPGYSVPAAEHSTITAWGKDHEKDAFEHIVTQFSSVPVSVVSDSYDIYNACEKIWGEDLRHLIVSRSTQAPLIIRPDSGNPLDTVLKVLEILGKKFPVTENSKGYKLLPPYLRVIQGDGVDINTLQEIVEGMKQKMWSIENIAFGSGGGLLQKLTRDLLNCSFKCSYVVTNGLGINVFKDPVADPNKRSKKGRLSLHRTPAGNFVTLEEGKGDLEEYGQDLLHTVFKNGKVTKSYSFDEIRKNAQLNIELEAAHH
test.summary: NMN fluorescence biochemical assay (human recombinant NAMPT enzyme assay)
endpoint.label: AC1.4 Human (µM)
Please reply with the bare figure in µM and do not write the unit itself.

Asked: Under human NAMPT (Homo sapiens (Human), UniProt P43490): AC1.4 Human value of Cc1ccc(Cc2ccc(NC(=O)OCc3ccc(Cl)cc3)cc2)cn1 [Compound 292] ?
Given back: 4.12

###

test.target: human NAMPT (Homo sapiens (Human), UniProt P43490)
test.summary: NMN fluorescence biochemical assay (human recombinant NAMPT enzyme assay)
Here the recorded AC1.4 Human is given for each entry.
Please reply with the bare figure in µM and do not write the unit itself.

CC(C)Cn1nccc1C(=O)N(C)Cc1ccc(NC(=O)OCc2ccc(Cl)cc2)cc1 [Compound 94] ... 0.75
COc1cnn(C)c1C(=O)N[C@@H](C)c1ccc(NC(=O)OCc2ccc(Cl)cc2)cc1 [Compound 92] ... 0.75
COC1CCN(C(=O)N(C)[C@@H](C)c2ccc(NC(=O)OCc3ccc(Cl)cc3)cc2)CC1 [Compound 134] ... 1.07
COc1ccc(COC(=O)Nc2ccc(CC3CCN(C4COC4)CC3)cc2)cc1 [Compound 67] ... 0.59
CO[C@H]1CC[C@H](NC(=O)Cc2ccc(NC(=O)OCc3ccc(Cl)cc3)cc2)CC1 [Compound 64] ... 0.58
COC(=O)N1CCC(Cc2ccc(NC(=O)OCc3cnco3)cc2)CC1 [Compound 11] ... 0.21
COc1ccc(COC(=O)Nc2ccc(CN3CCN(C)CC3=O)cc2)cc1 [Compound 168] ... 1.40
CC(C)C(=O)N1CC2(CC(c3ccc(NC(=O)OCc4cnco4)cc3)C2)C1 [Compound 357] ... 1.09
COc1ccc(COC(=O)Nc2ccc(CN3CC(S(C)(=O)=O)C3)cc2)cc1 [Compound 324] ... 7.47
COC(=O)N1CCC2(CC(Cc3ccc(NC(=O)OCc4cnco4)cc3F)C2)C1 (centres unmarked) [Compound 371] ... 0.27

Asked: Sample CN(C)C(=O)N1CCC2(CC(Cc3ccc(NC(=O)OCc4cnco4)cc3F)C2)C1 (centres unmarked) [Compound 379] — what was its AC1.4 Human?
Given back: 0.12

Asked: Sample CN(C)C(=O)N1CCC(Cc2ccc(NC(=O)OCc3cnco3)cc2F)CC1 [Compound 449] — what was its AC1.4 Human?
Given back: 0.10

Asked: Sample Cc1nn(C)c(C(=O)NCc2ccc(NC(=O)OCc3ccc(Cl)cc3)cc2)c1F [Compound 203] — what was its AC1.4 Human?
Given back: 1.82

Asked: Sample CN(C)C(=O)N1CCC(Cc2ccc(NC(=O)OCc3cnco3)cc2)CC12CC2 (centres unmarked) [Compound 442] — what was its AC1.4 Human?
Given back: 0.12

###

test.target: UniProt P43490
test.summary: NMN fluorescence biochemical assay (human recombinant NAMPT enzyme assay)
Here the recorded EC50 is given for each entry.
Please reply with the bare figure in µM and do not write the unit itself.

O=C(Nc1ccc(C2CCN(CC(F)F)CC2)cc1)OCc1cnco1 ... 51
O=C(Nc1ccc(CNC(=O)N2CCC2)cc1)OCc1ccc(Cl)cc1 ... 23.2

Asked: Sample Cc1ccc(C(=O)N(C)Cc2ccc(NC(=O)OCc3ccc(Cl)cc3)cc2)cn1 — what was its EC50?
Given back: 5.06

Asked: Sample Cc1ccc(Cc2ccc(NC(=O)OCc3ccc(F)cc3)cc2)cn1 — what was its EC50?
Given back: 11.9

Asked: Sample O=C(Nc1ccc(CC2CC3CCC(C2)N3C(=O)N2CCCC2)cc1)OCc1cnco1 (centres unmarked) — what was its EC50?
Given back: 5.5

###

test.target: human NAMPT (Homo sapiens (Human))
test.summary: NMN fluorescence biochemical assay (human recombinant NAMPT enzyme assay)
pEC50: −log10 of the molar value.
Rule: 1.0 for pEC50 not less than 5, 0.0 for anything less.

O=C(Nc1ccc(Cc2cocn2)cc1)OCc1ccc(Cl)cc1 [Compound 353] ... 0.0
O=C(Nc1ccc(CN2C(=O)CC3CC32)cc1)OCc1ccc(Cl)cc1 (centres unmarked) [Compound 63] ... 1.0
CC(=O)N1CCN(Cc2ccc(NC(=O)OCc3ccc(Cl)cc3)cc2)CC1 [Compound 191] ... 0.0
O=C(Cc1ccc(NC(=O)OCc2ccc(Cl)cc2)cc1)N[C@H]1CC[C@H](OC(F)(F)F)CC1 [Compound 338] ... 0.0
O=C(Nc1ccc(CN2CCC[C@@H]2c2cccnc2)cc1)OCc1ccncc1 [Compound 3] ... 1.0

// switching to the query compound
Asked: # bool: pEC50 of O=C(Cc1cnco1)NCc1ccc(NC(=O)OCc2ccc(Cl)cc2)cc1 [Compound 311] >= 5
Given back: 0.0
